Taken from ChEMBL document CHEMBL1201862.

- System: HCT-116
- experiment summary: NCI tumour cell line growth inhibition, 48 h
Activity calls are given as the source filed them. No stated cut-off is given here; in the data, active = GI50 up to about 1.1 µM and inactive = higher.
measurement label: GI50

The measured GI50 associated with CC(C)(C)CN1[C@@H]2CCCC[C@H]2N(CC(C)(C)C)P1(=O)C(O)/C=C/c1ccccc1 (stereo partly specified) reads 29.8 µM (inactive)

The measured GI50 associated with S=C1N=C(Cl)/C(=C\c2ccccc2)N1 reads > 100 µM (inactive)

The measured GI50 associated with Fc1cc(C2=C[C@H](c3ccc4c(c3)OCO4)NC(=S)N2)c(Cl)cc1Cl reads 27.5 µM (inactive)

The measured GI50 associated with Cc1csc2nc3[nH]ncc3c(=O)n12 reads > 100 µM (inactive)

The measured GI50 associated with CC1=NN(C2=NS(=O)(=O)c3ccccc3N2C)C(=O)C1 reads > 100 µM (inactive)

The measured GI50 associated with CC1=C(C)SC(=C2Sc3c(n(C)c(=O)[nH]c3=O)S2)S1 reads > 100 µM (inactive)
